Reference source for all entries: patent US20160208018A1

Biological target: T1, Human ROR1 (receptor tyrosine kinase-like orphan receptor 1) (human, UniProt Q01973 30-937)
T1 construct: also called hROR1; K562/ROR1
T1 sequence (Q01973 30-937): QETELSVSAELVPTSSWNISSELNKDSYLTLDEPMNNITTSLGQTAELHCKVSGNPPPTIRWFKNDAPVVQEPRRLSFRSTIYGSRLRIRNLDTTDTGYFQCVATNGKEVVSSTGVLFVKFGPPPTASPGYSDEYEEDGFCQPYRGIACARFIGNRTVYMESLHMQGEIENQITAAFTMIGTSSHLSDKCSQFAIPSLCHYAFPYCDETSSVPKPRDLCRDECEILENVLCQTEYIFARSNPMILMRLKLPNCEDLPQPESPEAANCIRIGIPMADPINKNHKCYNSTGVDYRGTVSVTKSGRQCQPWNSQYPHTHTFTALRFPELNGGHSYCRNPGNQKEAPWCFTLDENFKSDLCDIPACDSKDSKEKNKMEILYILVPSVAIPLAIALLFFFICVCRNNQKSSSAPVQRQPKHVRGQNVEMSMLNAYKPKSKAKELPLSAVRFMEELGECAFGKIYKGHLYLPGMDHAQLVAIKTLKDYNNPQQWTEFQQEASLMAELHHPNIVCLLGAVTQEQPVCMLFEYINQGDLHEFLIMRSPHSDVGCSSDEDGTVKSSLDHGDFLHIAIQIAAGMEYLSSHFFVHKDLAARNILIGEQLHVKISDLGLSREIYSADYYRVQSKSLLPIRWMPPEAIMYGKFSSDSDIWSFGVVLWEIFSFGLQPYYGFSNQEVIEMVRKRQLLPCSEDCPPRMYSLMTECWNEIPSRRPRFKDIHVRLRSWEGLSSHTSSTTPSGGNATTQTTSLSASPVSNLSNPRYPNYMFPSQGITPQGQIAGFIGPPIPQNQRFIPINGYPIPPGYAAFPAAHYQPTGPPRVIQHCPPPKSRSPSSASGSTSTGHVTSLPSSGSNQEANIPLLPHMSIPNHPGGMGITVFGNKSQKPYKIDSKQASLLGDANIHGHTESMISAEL
Assay: flow cytometry on ROR1-expressing K562 and CHOK1 cells (n = 1)
Quick reference for EC50 among some binders
Please respond with the number in nM and leave the unit unwritten.

What value of EC50 has been recorded for this entry: Clone 298 scFv (scFv) scFv: EVQLVESGGGLVQPGRSLRLSCTASGFTFGDYAMSWVRQAPGKGLEWVSSISGSGRSTDHADYVKGRFTISRDNSKNTVYLQMNRLRAEDTAVYYCAKVSNYEYYFDYWAQGTLVTVSSGGGGSGGGGSGGGGSEIVLTQSPSVSVAPGQTARITCGGSNIGSESVNWYQWKSGQVPVLVVSDTTDRPSGIPGRFTGTRSGTTATLTISGVEAGDEADYHCQVWDDTGDHPVFGGGTKLTVL 5.9

Query Clone 83B scFv (scFv, De-glycosylation variant of clone 83 (S to N at VH position 53, Kabat)) scFv: QVQLVQSGAEVKKPGASVKVSCKASGYTFTSYYMHWVRQAPGQGLEWMGIINPNGGSTSYAQKFQGRVTMTRDTSTSTVYMELSSLRSEDTAVYYCARDSSYDAFDIWGQGTMVTVSSGGGGSGGGGSGGGGSAIQLTQSPSTLSASVGDRVTITCQASQDISNYLNWYQQKPGKAPKLLINDASYLETGVPSRFSGSGSGTDFTLTISSLQPEDIATYYCQQYESLPYTFGQGTKLEIK next 6.4

Query Clone 305 scFv (scFv) scFv: EVQLVESGGGLVQPGRSLRLSCTASGFTFGDYAMSWVRQAPGKGLEWVSSISGSGRSTDHADYVKGRFTISRDNSKNTVYLQMNRLRAEDTAVYYCAKVSNYEYYFDYWAQGTLVTVSSQSVLTQPPSVSVAPGQTARITCGGNNIGSTSVHWFQQKPGQAPVLVVYDDSDRPSGIPERFSGSNSGNTATLTISRVEAGDEADYYCQVWDNDSDHRVFGGGTKLTVL next 5.1

Query Clone 350 scFv (scFv) scFv: EVQLVESGGGLVQPGRSLRLSCTASGFTFGDYAMSWVRQAPGKGLEWVSSISGSGRSTDHADYVKGRFTISRDNSKNTVYLQMNRLRAEDTAVYYCAKVSNYEYYFDYWAQGTLVTVSSQPVLTQPHSVSESPGKTVTISCTRSSGSIASNYVQWYQQRPGSAPTTVIYEDNQRPSGVPDRFSGSIDSSSNSASLTISGLKTEDEADYYCQSYDSSNHVFGTGTKLTVL next 22.9

Query Clone 366 scFv (scFv, Printed without a linker) scFv: EVQLVESGGGLVQPGRSLRLSCTASGFTFGDYAMSWVRQAPGKGLEWVSSISGSGRSTDHADYVKGRFTISRDNSKNTVYLQMNRLRAEDTAVYYCAKVSNYEYYFDYWAQGTLVTVSSQSVLTQPPSVPGTPGQRVTITCSGSRFNIGSNTVNWYQQLPGTAPKLLIYSNNQRPSGVPDRFSGSKSGTSASLAISGLQSEDEADYYCAAWDDSLNGYVFGTGTKLTVL next 10
